The reported measurements were obtained from patent US20240294551A1.

# SUBJECT_OF_TEST: GDP-bound KRAS protein (aa 1-169), containing both G12D and C118A amino acid substitutions (Homo sapiens (Human), UniProt P01116, C118A/G12D)
# Sequence (P01116 other isoform, or with tags, fused parts or gaps G12D/C118A): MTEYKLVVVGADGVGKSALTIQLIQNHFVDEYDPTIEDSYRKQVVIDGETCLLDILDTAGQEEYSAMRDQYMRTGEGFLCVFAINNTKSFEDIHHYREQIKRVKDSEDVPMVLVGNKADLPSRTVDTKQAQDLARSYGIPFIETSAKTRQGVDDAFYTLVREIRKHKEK
# RUN_DESCRIPTION: KRAS G12D Coupled Nucleotide Exchange Assay
# Assay type: biochemical
# SETUP_CONDITIONS: read-out: KRAS G12D Coupled Exchange IC50
// IC50 lookup, one value per entry
Please give a number only; it is taken to be in nM.

## Input Give IC50 for `COc1c2ncc3c(nc(OC[C@@]45CCCN4C[C@H](F)C5)nc13)N1CCC[C@](C)(C1)NC(=O)CCCc1c(F)ccc3cc(O)cc-2c13`
## Output 5

## Input Give IC50 for `[2H]C([2H])([2H])[C@]12COCCN(C1)c1nc(OC[C@@]34CCCN3C[C@H](F)C4)nc3c(F)c(ncc13)-c1c(c(C)cc3[nH]ncc13)CCCOC(=O)O2`
## Output 149

## Input Give IC50 for `CO[C@@H]1C[C@@H](COc2nc3c4cnc(c(F)c4n2)-c2c(c(Cl)cc4[nH]ncc24)CCCOC(=O)O[C@]2(C)COCCN3C2)N(C)C1`
## Output 3

## Input Give IC50 for Cc1cc2[nH]ncc2c2c1[C@H]1C[C@H]1CCOC[C@H]1CN(CCO1)c1nc(OC[C@@]34CCCN3C[C@H](F)C4)nc3c(F)c-2ncc13 (single isomer, unassigned)
## Output 5
